Data provenance is patent US7956053B2.

# TARGET OF ASSAY: UniProt P35968
# Sequence (P35968 20-1356): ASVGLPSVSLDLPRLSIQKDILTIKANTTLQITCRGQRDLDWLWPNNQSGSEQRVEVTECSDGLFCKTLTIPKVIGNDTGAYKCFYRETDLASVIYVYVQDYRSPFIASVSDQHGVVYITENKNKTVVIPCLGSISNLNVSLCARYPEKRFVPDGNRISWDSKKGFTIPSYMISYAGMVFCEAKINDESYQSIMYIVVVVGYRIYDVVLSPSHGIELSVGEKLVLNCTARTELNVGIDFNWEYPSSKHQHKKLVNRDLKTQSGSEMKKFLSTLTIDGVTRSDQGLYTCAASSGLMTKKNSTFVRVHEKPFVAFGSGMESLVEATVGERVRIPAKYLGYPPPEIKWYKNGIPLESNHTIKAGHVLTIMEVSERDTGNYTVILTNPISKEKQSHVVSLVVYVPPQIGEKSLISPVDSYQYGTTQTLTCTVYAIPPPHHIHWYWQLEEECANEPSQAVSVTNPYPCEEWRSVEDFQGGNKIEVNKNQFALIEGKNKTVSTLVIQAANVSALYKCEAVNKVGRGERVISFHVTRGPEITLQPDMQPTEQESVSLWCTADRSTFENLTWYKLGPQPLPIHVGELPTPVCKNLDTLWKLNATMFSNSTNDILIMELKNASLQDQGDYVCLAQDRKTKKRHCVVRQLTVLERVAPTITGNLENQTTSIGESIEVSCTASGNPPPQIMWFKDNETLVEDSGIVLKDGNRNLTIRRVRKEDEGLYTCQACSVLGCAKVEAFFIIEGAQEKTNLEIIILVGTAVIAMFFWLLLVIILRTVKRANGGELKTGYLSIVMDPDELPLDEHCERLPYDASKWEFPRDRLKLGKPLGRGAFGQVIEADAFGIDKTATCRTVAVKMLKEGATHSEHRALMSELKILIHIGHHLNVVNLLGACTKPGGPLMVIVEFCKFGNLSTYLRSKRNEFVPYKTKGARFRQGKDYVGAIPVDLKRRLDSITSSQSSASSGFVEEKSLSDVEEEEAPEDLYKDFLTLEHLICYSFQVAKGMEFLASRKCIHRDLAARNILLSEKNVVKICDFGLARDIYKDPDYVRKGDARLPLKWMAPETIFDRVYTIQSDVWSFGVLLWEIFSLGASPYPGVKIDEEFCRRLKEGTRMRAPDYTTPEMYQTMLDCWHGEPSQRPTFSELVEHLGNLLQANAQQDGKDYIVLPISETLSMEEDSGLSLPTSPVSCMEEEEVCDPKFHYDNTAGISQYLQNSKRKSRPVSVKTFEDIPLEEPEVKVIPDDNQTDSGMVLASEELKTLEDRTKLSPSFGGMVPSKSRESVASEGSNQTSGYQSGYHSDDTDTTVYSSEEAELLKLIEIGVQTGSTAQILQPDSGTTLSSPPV
# EXPERIMENT SUMMARY: Enzymatic KDR in vitro inhibition
# Type: biochemical
ASSAY READOUT: inhibition at 10 µM (%)
Entry rule: numbers only, all in %.

# example entries with known answers
Cc1ccc(C(=O)N2CCN(c3cnccn3)CC2)cc1Nc1nccc(-c2cccnc2)n1    91
Cc1ccc(C(=O)N2CCN(CC(=O)N3CCCC3)CC2)cc1Nc1nccc(-c2cccnc2)n1    56
COc1ccc(CCNC(=O)c2ccc(C)c(Nc3nccc(-c4cccnc4)n3)c2)cc1OC    23

q: Give inhibition at 10 µM (UniProt P35968) of the following molecule: `Cc1ccc(C(=O)N2CCC(O)(c3ccccc3)CC2)cc1Nc1nccc(-c2cccnc2)n1`
a: 83

q: Next: `Cc1ccc(C(=O)N(C)Cc2ccccc2)cc1Nc1nccc(-c2cccnc2)n1`
a: 93

q: Next: `Cc1ccc(C(=O)N2CCC(N3CCCCC3)CC2)cc1Nc1nccc(-c2cccnc2)n1`
a: 43

q: Next: `Cc1ccc(C(=O)NCC(=O)OC(C)(C)C)cc1Nc1nccc(-c2cccnc2)n1`
a: 65

q: Next: `CCOC(=O)C1CCN(Cc2cccc(NC(=O)c3ccc(C)c(Nc4nccc(-c5cccnc5)n4)c3)c2)CC1`
a: 59

q: Next: `Cc1ccc(C(=O)NCCc2ccccn2)cc1Nc1nccc(-c2cccnc2)n1`
a: 46

q: Next: `Cc1ccc(C(=O)NCCCN(C)c2ccccc2)cc1Nc1nccc(-c2cccnc2)n1`
a: 82

q: Next: `CC(=O)Nc1ccc(NC(=O)c2ccc(C)c(Nc3nccc(-c4cccnc4)n3)c2)cc1`
a: 7
